Assay: Binding affinity for DHP (Dihydropyridine) site of L-type calcium channel of calf heart in the resting state
For each entry below, report its IC50 value.
One number for each entry, in nM.

Example results:
CCOC(=O)C1=C(C)NC(C)=C(C#N)[C@@H]1c1cnccc1-c1ccccc1 250
CCOC(=O)C1=C(C)NC(C)=C(C#N)[C@@H]1c1cnccc1-c1ccc2ccccc2c1 100

Q: Consider the molecule shown here: `CCOC(=O)C1=C(C)NC(C)=C(C#N)[C@@H]1c1cnccc1-c1cccc2ccccc12` What is its recorded IC50?
Result: 270
